# subject of test: KDM5A (Homo sapiens)
# Construct: C-terminal FLAG-tagged KDM5A^1-1090 was purchased from BPS Biosciences; FLAG (C); purchased BPS Biosciences
# Sequence (P29375 1-1090): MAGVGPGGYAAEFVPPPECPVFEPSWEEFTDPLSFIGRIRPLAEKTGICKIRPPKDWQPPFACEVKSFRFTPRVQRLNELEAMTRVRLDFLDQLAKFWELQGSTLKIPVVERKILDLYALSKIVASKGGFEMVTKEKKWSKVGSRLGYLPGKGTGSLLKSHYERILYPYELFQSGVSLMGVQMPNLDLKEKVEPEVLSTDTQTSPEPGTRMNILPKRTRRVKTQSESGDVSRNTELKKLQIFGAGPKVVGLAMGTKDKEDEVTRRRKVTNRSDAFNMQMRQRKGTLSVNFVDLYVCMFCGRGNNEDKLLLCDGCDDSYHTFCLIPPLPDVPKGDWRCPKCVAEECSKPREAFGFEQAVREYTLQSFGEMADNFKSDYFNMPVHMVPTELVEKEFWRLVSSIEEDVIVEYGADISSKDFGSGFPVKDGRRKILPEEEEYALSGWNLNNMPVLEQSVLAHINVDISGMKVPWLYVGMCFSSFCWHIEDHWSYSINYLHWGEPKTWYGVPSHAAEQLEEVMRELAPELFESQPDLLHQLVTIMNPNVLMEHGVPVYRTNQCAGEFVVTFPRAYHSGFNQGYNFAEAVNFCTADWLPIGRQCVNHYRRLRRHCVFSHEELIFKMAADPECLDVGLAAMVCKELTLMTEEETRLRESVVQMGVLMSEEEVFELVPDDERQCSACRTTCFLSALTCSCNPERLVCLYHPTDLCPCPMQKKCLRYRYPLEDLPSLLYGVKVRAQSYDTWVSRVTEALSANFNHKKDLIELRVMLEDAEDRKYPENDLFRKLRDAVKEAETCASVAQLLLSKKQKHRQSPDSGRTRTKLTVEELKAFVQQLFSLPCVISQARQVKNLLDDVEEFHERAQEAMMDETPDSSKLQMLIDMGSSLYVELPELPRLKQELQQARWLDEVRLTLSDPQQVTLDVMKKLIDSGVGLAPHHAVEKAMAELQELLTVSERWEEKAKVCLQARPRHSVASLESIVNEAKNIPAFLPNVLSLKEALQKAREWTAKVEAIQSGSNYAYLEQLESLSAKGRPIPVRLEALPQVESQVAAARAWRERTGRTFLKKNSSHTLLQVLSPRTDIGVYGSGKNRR
# assay procedure: KDM5A Assay (SAMDI mass spectrometry demethylase assay)
# Format: biochemical
# measurement parameters: C-terminal FLAG-tagged KDM5A 1-1090; class symbols; read-out: 5A IC50
pIC50: −log10 of the molar value.
attribute measured: pIC50

Past entries and their recorded results:
molecule=O=C(O)c1ccncc1Nc1cc(-c2ccccc2)nn1[C@H]1CC[C@@H](O)CC1 subject_of_test="KDM5A (Homo sapiens)" attribute_measured=pIC50 result="5.00 to 6.00"
molecule=Cc1nn(C2CCN(CC3CC3)CC2)cc1Nc1cnccc1C(=O)O subject_of_test="KDM5A (Homo sapiens)" attribute_measured=pIC50 result="6.00 to 7.00"
molecule=Cc1cc(Nc2cnccc2C(=O)O)n(-c2ccccc2)n1 subject_of_test="KDM5A (Homo sapiens)" attribute_measured=pIC50 result="5.00 to 6.00"
molecule=O=C(O)c1ccncc1Nc1c(-c2ccc(F)cc2)cnn1CCN1CCC(F)(F)CC1 subject_of_test="KDM5A (Homo sapiens)" attribute_measured=pIC50 result="5.00 to 6.00"
molecule=Cn1ncc(-c2ccccc2)c1Nc1cnccc1C(=O)O subject_of_test="KDM5A (Homo sapiens)" attribute_measured=pIC50 result="5.00 to 6.00"

[Q] Given O=C(O)c1ccncc1Nc1nn(CCN2CCC(F)(F)CC2)cc1C1CCCCC1 , state its recorded pIC50.
[A] 6.00 to 7.00

[Q] Given Cn1cc(-c2ccccc2F)c(Nc2cnccc2C(=O)O)n1 , state its recorded pIC50.
[A] 5.00 to 6.00

[Q] Given COc1ccccc1-n1cc(C)c(Nc2cnccc2C(=O)O)n1 , state its recorded pIC50.
[A] 7.00 to 9.00

[Q] Given NC1CCC(n2nc(Nc3cnccc3C(=O)O)cc2-c2cccc(Cl)c2)CC1 (stereo not shown) , state its recorded pIC50.
[A] 5.00 to 6.00

[Q] Given Cc1cn(-c2cccc3c2CCNC3)nc1Nc1cnccc1C(=O)O , state its recorded pIC50.
[A] 7.00 to 9.00

[Q] Given Cc1c(Nc2cnccc2C(=O)O)nn(CCN2CCC(F)(F)CC2)c1-c1ccccc1 , state its recorded pIC50.
[A] 7.00 to 9.00

[Q] Given Cc1cc(Nc2cnccc2C(=O)O)nn1-c1ccccc1 , state its recorded pIC50.
[A] 5.00 to 6.00

[Q] Given Cc1c(Nc2cnccc2C(=O)O)cnn1C1CCCNCC1 (single isomer, unassigned) , state its recorded pIC50.
[A] 5.00 to 6.00

[Q] Given Cc1nn(C2CCNCC2)cc1Nc1cnccc1C(=O)O , state its recorded pIC50.
[A] 6.00 to 7.00

[Q] Given Cn1ncc(-c2ccccc2F)c1Nc1cnccc1C(=O)O , state its recorded pIC50.
[A] 6.00 to 7.00

[Q] Given CN(C)CCCn1cc(-c2ccccc2)c(Nc2cnccc2C(=O)O)n1 , state its recorded pIC50.
[A] 7.00 to 9.00

[Q] Given CN(C)CCn1cc(-c2ccccc2)c(Nc2cnccc2C(=O)O)n1 , state its recorded pIC50.
[A] 7.00 to 9.00
